Where these numbers come from: the NIST ThermoML archive (doi:10.1021/je025629r)

For each record, write down the corresponding mass density.
# conditions used: 298.2 K; 101.33 kPa; Liquid; vibrating tube
Give bare numbers, in kg/m3.

Here are 5 compounds together with their reported answers.
Field mass density (entry CCCCCCCCCCCC ) reads 746.6

Field mass density (entry CCCCCCCCCCCCCCCC ) reads 770.3

Field mass density (entry CO ) reads 786.27

Field mass density (entry CCCCCCC ) reads 682.3

Field mass density (entry CCCCCCCC[n+]1ccn(C)c1.[Cl-] [1-methyl-3-octylimidazolium chloride] ) reads 1010.4

Now examine the next entry.
Field mass density (entry CCO ) reads 784.93
